biological target: Phosphatidylinositol 4,5-bisphosphate 3-kinase catalytic subunit delta isoform (Homo sapiens); assay: Inhibition of PI3K delta (unknown origin) using lipid substrate measured after 40 mins in presence of ATP by Kinase-Glo plus reagent based luminescence assay
Sequence (O00329 whole entry, canonical isoform): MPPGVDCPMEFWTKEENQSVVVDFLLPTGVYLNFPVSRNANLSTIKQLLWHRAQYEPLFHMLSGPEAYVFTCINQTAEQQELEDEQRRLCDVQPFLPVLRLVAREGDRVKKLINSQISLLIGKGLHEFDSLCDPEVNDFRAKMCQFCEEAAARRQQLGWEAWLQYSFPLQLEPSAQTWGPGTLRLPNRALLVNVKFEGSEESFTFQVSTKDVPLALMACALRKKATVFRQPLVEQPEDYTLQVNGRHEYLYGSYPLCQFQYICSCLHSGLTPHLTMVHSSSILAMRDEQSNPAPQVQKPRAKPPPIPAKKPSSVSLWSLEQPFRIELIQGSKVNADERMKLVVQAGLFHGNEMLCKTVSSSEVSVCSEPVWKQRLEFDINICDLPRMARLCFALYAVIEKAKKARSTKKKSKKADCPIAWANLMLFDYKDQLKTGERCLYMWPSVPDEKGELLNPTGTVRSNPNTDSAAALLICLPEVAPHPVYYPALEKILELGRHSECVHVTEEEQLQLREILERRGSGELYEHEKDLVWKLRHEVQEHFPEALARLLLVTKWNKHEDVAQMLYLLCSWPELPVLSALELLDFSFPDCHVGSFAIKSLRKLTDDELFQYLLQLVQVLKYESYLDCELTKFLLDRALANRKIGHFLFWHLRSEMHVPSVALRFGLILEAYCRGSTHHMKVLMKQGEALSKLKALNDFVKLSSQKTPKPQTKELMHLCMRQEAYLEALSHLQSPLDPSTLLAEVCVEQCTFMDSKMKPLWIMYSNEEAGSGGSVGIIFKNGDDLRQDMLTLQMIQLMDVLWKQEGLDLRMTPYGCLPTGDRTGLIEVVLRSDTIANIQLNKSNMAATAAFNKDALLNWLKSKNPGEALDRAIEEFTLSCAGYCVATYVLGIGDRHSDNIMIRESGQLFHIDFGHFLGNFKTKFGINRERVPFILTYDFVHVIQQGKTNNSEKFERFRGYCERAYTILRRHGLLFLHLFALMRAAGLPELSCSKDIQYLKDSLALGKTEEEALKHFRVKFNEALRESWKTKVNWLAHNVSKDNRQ
Please respond with reported IC50 for every item in the list.
Record the value in nM, omitting the unit from your answer.

Suppose we examine the compound COc1ncc(-c2ccc3ncnc(N[C@H]4CCN(C(=O)C5CCOCC5)C4)c3c2)cc1NS(C)(=O)=O ; what IC50 value has been reported?
7.4

Continue with COc1ncc(-c2ccc3ncnc(NCCN4CCOCC4)c3c2)cc1NS(C)(=O)=O
2.2

Try this compound next: COc1ncc(-c2ccc3ncnc(N[C@H]4CCN(C(C)=O)C4)c3c2)cc1NS(C)(=O)=O
6.8

----------
Exercise: for every item that follows, state its recorded IC50.
test system: HCT-116; experiment: Antiproliferative activity against human HCT116 cells harboring PIK3CA mutant H1047R measured after 72 hrs by MTT assay; type: functional, cell-based; details: HCT-116, 72 h
Answer with a number only, understood to be in nM.

I am curious: what IC50 value has been reported for COc1ncc(-c2ccc3ncnc(N[C@H]4CCN(C(=O)C5CC5)C4)c3c2)cc1NS(C)(=O)=O ?
1000

Another compound: COc1ncc(-c2ccc3ncnc(NCCN(C)C)c3c2)cc1NS(C)(=O)=O
8700

Input COc1ncc(-c2ccc3ncnc(NCCN4CCOCC4)c3c2)cc1NS(=O)(=O)C1CC1
1900

Please do the same for COc1ncc(-c2ccc3ncnc(N(C)CCN(C)C)c3c2)cc1NS(C)(=O)=O as well.
5100

Repeat for the following compound: COc1ncc(-c2ccc3ncnc(NC4CCN(C(=O)C5CCOCC5)CC4)c3c2)cc1NS(C)(=O)=O
2900

Consider next the compound COc1ncc(-c2ccc3ncnc(NC4CCNCC4)c3c2)cc1NS(C)(=O)=O in the same way.
1300

What would you report for COc1ncc(-c2ccc3ncnc(N[C@H]4CCN(C(=O)C5CCOCC5)C4)c3c2)cc1NS(C)(=O)=O ?
1700

Also check COc1ncc(-c2ccc3nccc(NCCN4CCOCC4)c3c2)cc1NS(C)(=O)=O
29000

One more compound: COc1ncc(-c2ccc3ncnc(NCCN4CCCCC4)c3c2)cc1NS(=O)(=O)C1CC1
5800

Another: COc1ncc(-c2ccc3ncnc(NC4CCN(C(=O)OC(C)(C)C)CC4)c3c2)cc1NS(C)(=O)=O
1800

Now try Cn1c(=O)n(-c2ccc(C(C)(C)C#N)cc2)c2c3cc(-c4cnc5ccccc5c4)ccc3ncc21 .
370

And COc1ncc(-c2ccc3ncnc(N[C@H]4CCN(C(=O)C5CCCC5)C4)c3c2)cc1NS(C)(=O)=O ?
2100
